# protocolDescription: Clearance in Harlan nu/nu mouse at 10 mg/kg, iv
# Type: ADME, organism-based
# Parameters: dose 10 mg/kg, route intravenous
# conditionDetails: in vivo

| smilesNotation | clearance (mL/min/kg) |
| --- | --- |
| NC(=O)c1cc(-c2ccnc(N)n2)[nH]c1-c1ccccc1 | 50 |
| NC(=O)c1cc(-c2ccnc(N)n2)[nH]c1-c1cccs1 | 27.3 |
| NC(=O)c1cc(-c2ccnc(N)n2)[nH]c1-c1ccsc1 | 58.3 |
| CCn1c(-c2ccnc(N)n2)cc(C(N)=O)c1-c1ccccc1 | 4.8 |
| NC(=O)c1cc(-c2ccnc(N)n2)[nH]c1-c1ccc2sccc2c1 | 31.5 |
| NC(=O)c1cc(-c2nc(N)ncc2F)[nH]c1-c1ccccc1 | 33.5 |
